Test system: DP50 cotton zygotic embryo explants
assay_method_text: Relative activity of different formulations of dikegulac on DP50 cotton zygotic embryo explants
Type: cell-based
experimental_context: Study 1; 500 mg/L; solid DIB medium; cv DP50

{"compound": "CC1(C)OC[C@@H]2O[C@@]3(C(=O)O)OC(C)(C)O[C@H]3[C@@H]2O1 [dikegulac (acid form)]", "No. non-viable Explants": 8}
{"compound": "CC1(C)OC[C@@H]2O[C@@]3(C(=O)[O-])OC(C)(C)O[C@H]3[C@@H]2O1.[Na+] [RJK-H]", "No. non-viable Explants": 9}
{"compound": "CC1(C)OC[C@@H]2O[C@@]3(C(=O)[O-])OC(C)(C)O[C@H]3[C@@H]2O1.[Na+] [D4043]", "No. non-viable Explants": 5}
{"compound": "CC1(C)OC[C@@H]2O[C@@]3(C(=O)[O-])OC(C)(C)O[C@H]3[C@@H]2O1.[Na+] [Q2161]", "No. non-viable Explants": 9}

###

Each record here notes measured Percent Responding.
Test system: DP50 cotton zygotic embryo explants
assay_method_text: Relative activity of different formulations of dikegulac on DP50 cotton zygotic embryo explants
Assay type: cell-based
experimental_context: Study 1; 500 mg/L; solid DIB medium; cv DP50

{"compound": "CC1(C)OC[C@@H]2O[C@@]3(C(=O)O)OC(C)(C)O[C@H]3[C@@H]2O1 [dikegulac (acid form)]", "Percent Responding": "87%"}
{"compound": "CC1(C)OC[C@@H]2O[C@@]3(C(=O)[O-])OC(C)(C)O[C@H]3[C@@H]2O1.[Na+] [RJK-H]", "Percent Responding": "85%"}
{"compound": "CC1(C)OC[C@@H]2O[C@@]3(C(=O)[O-])OC(C)(C)O[C@H]3[C@@H]2O1.[Na+] [D4043]", "Percent Responding": "92%"}
{"compound": "CC1(C)OC[C@@H]2O[C@@]3(C(=O)[O-])OC(C)(C)O[C@H]3[C@@H]2O1.[Na+] [Q2161]", "Percent Responding": "85%"}

###

Test system: DP50 cotton zygotic embryo explants
assay_method_text: Relative activity of different formulations of dikegulac on DP50 cotton zygotic embryo explants
Format: cell-based
experimental_context: Study 1; 500 mg/L; liquid DIB medium; cv DP50
Each record here notes measured Extra buds per viable explant.

{"compound": "CC1(C)OC[C@@H]2O[C@@]3(C(=O)[O-])OC(C)(C)O[C@H]3[C@@H]2O1.[Na+] [D4043]", "target_or_test_system": "DP50 cotton zygotic embryo explants", "Extra buds per viable explant": 3.9}
{"compound": "CC1(C)OC[C@@H]2O[C@@]3(C(=O)O)OC(C)(C)O[C@H]3[C@@H]2O1 [dikegulac (acid form)]", "target_or_test_system": "DP50 cotton zygotic embryo explants", "Extra buds per viable explant": 3.4}
{"compound": "CC1(C)OC[C@@H]2O[C@@]3(C(=O)[O-])OC(C)(C)O[C@H]3[C@@H]2O1.[Na+] [Q2161]", "target_or_test_system": "DP50 cotton zygotic embryo explants", "Extra buds per viable explant": 3.5}
{"compound": "CC1(C)OC[C@@H]2O[C@@]3(C(=O)[O-])OC(C)(C)O[C@H]3[C@@H]2O1.[Na+] [RJK-D]", "target_or_test_system": "DP50 cotton zygotic embryo explants", "Extra buds per viable explant": 3.3}

###

Tested on: DP50 cotton zygotic embryo explants
assay_method_text: Relative activity of different formulations of dikegulac on DP50 cotton zygotic embryo explants
Assay type: cell-based
experimental_context: Study 1; 500 mg/L; liquid DIB medium; cv DP50
Experimental: Any common plant tissue culture media can be used, including, but not limited to, modified LP medium, DKW medium, GD1 medium, MS/B5 medium, or WPM medium. Embryo axes should be placed apical end up and basal end into the medium so that the radicle is beneath the medium surface. The explants are cultured axenically at approximately 25-28° C. under fluorescent lighting at about 10-50 μE PAR for a 16-hour photoperiod. […]

{"compound": "CC1(C)OC[C@@H]2O[C@@]3(C(=O)O)OC(C)(C)O[C@H]3[C@@H]2O1 [dikegulac (acid form)]", "target_or_test_system": "DP50 cotton zygotic embryo explants", "No. non-viable Explants": 16}
{"compound": "CC1(C)OC[C@@H]2O[C@@]3(C(=O)[O-])OC(C)(C)O[C@H]3[C@@H]2O1.[Na+] [D4043]", "target_or_test_system": "DP50 cotton zygotic embryo explants", "No. non-viable Explants": 16}
{"compound": "CC1(C)OC[C@@H]2O[C@@]3(C(=O)[O-])OC(C)(C)O[C@H]3[C@@H]2O1.[Na+] [RJK-D]", "target_or_test_system": "DP50 cotton zygotic embryo explants", "No. non-viable Explants": 11}
{"compound": "CC1(C)OC[C@@H]2O[C@@]3(C(=O)[O-])OC(C)(C)O[C@H]3[C@@H]2O1.[Na+] [Q2161]", "target_or_test_system": "DP50 cotton zygotic embryo explants", "No. non-viable Explants": 20}

###

System: DP50 cotton zygotic embryo explants
assay_method_text: Relative activity of different formulations of dikegulac on DP50 cotton zygotic embryo explants
Assay type: cell-based
experimental_context: Study 1; 500 mg/L; solid DIB medium; cv DP50
Each record here notes measured Extra buds per viable explant.
quantity: Extra buds per viable explant

{"compound": "CC1(C)OC[C@@H]2O[C@@]3(C(=O)[O-])OC(C)(C)O[C@H]3[C@@H]2O1.[Na+] [Q2161]", "quantity": "Extra buds per viable explant", "assay_result": 2.9}
{"compound": "CC1(C)OC[C@@H]2O[C@@]3(C(=O)O)OC(C)(C)O[C@H]3[C@@H]2O1 [dikegulac (acid form)]", "quantity": "Extra buds per viable explant", "assay_result": 3.8}
{"compound": "CC1(C)OC[C@@H]2O[C@@]3(C(=O)[O-])OC(C)(C)O[C@H]3[C@@H]2O1.[Na+] [D4043]", "quantity": "Extra buds per viable explant", "assay_result": 3.4}
{"compound": "CC1(C)OC[C@@H]2O[C@@]3(C(=O)[O-])OC(C)(C)O[C@H]3[C@@H]2O1.[Na+] [RJK-H]", "quantity": "Extra buds per viable explant", "assay_result": 3.7}

Provenance of the data: patent US8187882B2
